The following molecules are shown together with reported melting point values.

Cc1ccc(C)c(Cn2nc(-c3ccccc3Cl)[nH]c2=S)c1 166 to 167 °C
Cc1ccc(Cn2nc(-c3ccccc3Cl)[nH]c2=S)cc1 162 to 163 °C
Fc1ccccc1-c1nn(Cc2ccccc2)c(=S)[nH]1 180 to 183 °C
S=c1[nH]c(-c2ccc(-c3ccccc3)cc2)nn1Cc1ccccc1 249 to 250 °C
S=c1[nH]c(-c2ccc(Cl)c(Cl)c2)nn1Cc1ccccc1 227 to 228 °C

Look up melting point for this molecule: S=c1[nH]c(-c2ccccc2Br)nn1Cc1ccccc1 139 to 140 °C

// next record Cc1cccc(Cn2nc(-c3ccc(Cl)cc3Cl)[nH]c2=S)c1 177 to 178 °C

====

result.type: melting point

S=c1[nH]c(-c2ccc(Cl)cc2Cl)nn1Cc1cccc(Oc2ccccc2)c1 180 to 181 °C
S=c1[nH]c(-c2ccncc2)nn1Cc1ccccc1 160 to 162 °C
COc1ccc(Cn2nc(-c3ccccc3Cl)[nH]c2=S)cc1 153 to 154 °C
Fc1cccc(Cn2nc(-c3ccccc3Cl)[nH]c2=S)c1 125 to 126 °C
S=c1[nH]c(-c2ccc3ccccc3c2Br)nn1Cc1ccccc1 168 to 170 °C
S=c1[nH]c(-c2cccnc2)nn1Cc1cccc(Cl)c1 208 to 209 °C

Look up melting point for this molecule: S=c1[nH]c(-c2cccc(Cl)c2)nn1Cc1ccccc1 175 to 176 °C

// next record FC(F)(F)c1cccc(-c2nn(Cc3ccccc3)c(=S)[nH]2)c1 209 to 210 °C

// next record Cc1ccc(-c2nn(Cc3cccc(Cl)c3)c(=S)[nH]2)cc1 207 to 208 °C

// next record COC(=O)c1ccc(-c2nn(Cc3ccccc3)c(=S)[nH]2)cc1 > 215 °C

// next record S=c1[nH]c(-c2ccco2)nn1Cc1ccccc1 212 to 213 °C

====

The following molecules are shown together with reported melting point values.

Look up melting point for this molecule: S=c1[nH]c(-c2cccs2)nn1Cc1ccccc1 [Example 31] 230 to 231 °C

// next record S=c1[nH]c(-c2ccccc2Oc2ccccc2)nn1Cc1ccccc1 [Example 39] 158 to 159 °C

// next record S=c1[nH]c(-c2ccc(Cl)cc2Cl)nn1Cc1cccc(Cl)c1 [Example 32] 190 to 191 °C

// next record S=c1[nH]c(-c2ccccc2Cl)nn1Cc1cccc(Cl)c1 [Example 42] 143 to 143.5 °C

// next record S=c1[nH]c(-c2cccc(Oc3ccccc3)c2)nn1Cc1ccccc1 [Example 30] 200 to 202 °C

// next record S=c1[nH]c(-c2ccccc2)nn1Cc1cccc(Cl)c1 [Example 57] 213 °C

// next record S=c1[nH]c(-c2ccccc2Cl)nn1CCc1ccccc1 [Example 66] 131 to 133 °C

====

The following compounds are shown together with reported melting point values.

compound	melting point
COc1ccc(Br)c(-c2nn(Cc3ccccc3)c(=S)[nH]2)c1 [Example 12]	154 to 155 °C
O=[N+]([O-])c1ccc(Cn2nc(-c3ccccc3Cl)[nH]c2=S)cc1 [Example 65]	182 to 183 °C
Fc1ccc(F)c(Cn2nc(-c3ccccc3Cl)[nH]c2=S)c1 [Example 61]	161 to 163 °C

Would you kindly look at the next entry?
Look up melting point for this compound: S=c1[nH]c(-c2ccccc2Cl)nn1Cc1ccccc1I [Example 59] 189 to 190 °C
